# Tested on: GABAA receptor (native, rat cerebellar Purkinje cells)
# Construct: gene Gabra1; native heteropentameric receptors in acutely isolated Purkinje neurons
# assayMethodText: whole-cell patch clamp, GABA-induced chloride current
# Format: cell-based
# particulars: positive allosteric modulator; 2 µM GABA co-applied; fit to rising phase of bell-shaped curve; pH 7.4; holding -70 mV
metricName: EC50 (µM)

{"compound": "CC(=O)[C@H]1CC[C@H]2[C@@H]3CC[C@H]4C[C@H](O)CC[C@]4(C)[C@H]3CC[C@]12C [ALLO, 3α-hydroxy-5α-pregnan-20-one]", "metricName": "EC50", "valueObserved": 0.29}
